SYSTEM_NAME: HLA-DRB1*04:01 (DR0401) protein (Homo sapiens, UniProt P01903+P01911, A100K/A169T/F76Y/I96L/K127E/L162R/M171V/N62H/P40V/Q125Y/R42H/S133A/S149N/S66Y/V115G/V209L/W38E)
ASSAY_METHOD_TEXT: DR0401 peptide binding competition assay
Where no end group is shown, it is not given here.
MEASURED_PARAMETER: log10(IC50) (log10 of the value in nM)
Reminder: these figures are log10 of reported IC50, in nM before transformation.

Worked cases, answers included:
1. QPLALEGSALSSQHQA [HIP-4.40]; 3.38
2. VCGERGFFEELVARSE [HIP-4.1]; 3.45
3. SLQKRGIVEELVARSE [HIP-4.18]; 3.26
4. CSLYQLENSVPHFSDE [HIP-4.39]; 2.38

--- query ---
# input Recorded log10(IC50) of HLVEALYLEELVARSE [HIP-4.2] , please.
# output 2.64
